# experimental.setup: 323.15 K; 100 kPa; Liquid; Vibrating tube method
Overview of recorded mass density for various molecules
Record the value in kg/m3, omitting the unit from your answer.

molecule="CC1=CCC(=O)O1 [5-methylfuran-2(3H)-one]" experimental_value=1061.58
molecule="CCC1CCC(=O)O1 (stereo not given) [2(3H)-furanone, 5-ethyldihydro-]" experimental_value=998.229

Query: mass density; subject: O=C1CCCO1 [γ-butyrolactone] 1099.86

Returns the measured mass density for the input molecule. Input: CC1CCC(=O)O1 (stereo not given) [γ-valerolactone] 1025.56

Given the molecule CC1CCCC(=O)O1 (stereo not given) [2H-pyran-2-one, tetrahydro-6-methyl-] , what is its reported mass density? 1023.51
